# assayed.target: recombinant human Meningioma Expressed Antigen 5 (MGEA5), also referred to as O-GlcNAcase (OGA) (Homo sapiens, UniProt O60502)
# Construct: Full length OGA enzyme was purchased at OnGene (cat #TP322411); purchased OnGene (so in the source)
# Sequence (O60502 whole entry): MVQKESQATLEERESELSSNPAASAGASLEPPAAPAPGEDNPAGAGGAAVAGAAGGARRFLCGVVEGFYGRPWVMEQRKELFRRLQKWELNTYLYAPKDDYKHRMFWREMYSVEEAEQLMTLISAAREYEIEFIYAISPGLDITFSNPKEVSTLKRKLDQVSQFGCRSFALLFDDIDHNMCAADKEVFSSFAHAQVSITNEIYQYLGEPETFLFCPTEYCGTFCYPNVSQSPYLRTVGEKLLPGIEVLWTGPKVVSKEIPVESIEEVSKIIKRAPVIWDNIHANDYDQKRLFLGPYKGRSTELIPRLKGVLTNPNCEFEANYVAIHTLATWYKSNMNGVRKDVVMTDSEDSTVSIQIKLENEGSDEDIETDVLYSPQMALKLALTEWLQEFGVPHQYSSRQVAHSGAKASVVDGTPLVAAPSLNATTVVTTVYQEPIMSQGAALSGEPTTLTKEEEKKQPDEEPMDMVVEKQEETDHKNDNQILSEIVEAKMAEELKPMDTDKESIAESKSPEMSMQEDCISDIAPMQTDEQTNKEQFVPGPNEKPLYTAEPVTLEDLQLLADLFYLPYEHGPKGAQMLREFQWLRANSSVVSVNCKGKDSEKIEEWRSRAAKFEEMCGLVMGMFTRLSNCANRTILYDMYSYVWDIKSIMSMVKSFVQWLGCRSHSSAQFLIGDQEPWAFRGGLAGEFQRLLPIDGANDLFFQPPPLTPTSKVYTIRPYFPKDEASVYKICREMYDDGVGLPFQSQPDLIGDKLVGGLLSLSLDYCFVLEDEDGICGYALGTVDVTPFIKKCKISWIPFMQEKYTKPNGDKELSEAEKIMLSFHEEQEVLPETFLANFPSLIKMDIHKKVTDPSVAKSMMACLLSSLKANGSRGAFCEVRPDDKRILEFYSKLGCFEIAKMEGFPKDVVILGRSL
# test.name: OGA biochemical assay: inhibition of hydrolysis of fluorescein mono-ß-D-N-Acetyl-Glucosamine (FM-GlcNAc), fluorescence readout
# experimental.context: FM-GlcNAc substrate, read-out: Enzymatic Emax (%)
# From the text: The assay is based on the inhibition of the hydrolysis of fluorescein mono-ß-D-N-Acetyl-Glucosamine (FM-GlcNAc) (Mariappa et al. 2015, Biochem J 470:255) by the recombinant human Meningioma Expressed Antigen 5 (MGEA5), also referred to as O-GlcNAcase (OGA). […] The fluorescence of the latter can be measured at excitation wavelength 485 nm and emission wavelength 538 nm. An increase in enzyme activity results in an increase in fluorescence signal. […]
assay.endpoint: Emax (%)

Cc1ccnc(C)c1Nc1nccc2c1ccn2CCC(F)F [Compound 96]; 102
Cc1ccnc(OC(F)F)c1Nc1nccc2c1ccn2CC(C)(F)F [Compound 132]; 99.7
CCC(F)(F)Cn1ccc2c(Nc3c(C)ccnc3C(C)C)nccc21 [Compound 112]; 102
Cc1ccnc(C)c1Nc1nccc2c1ccn2CC(F)(F)C1CC1 [Compound 23]; 102
CCCCn1ccc2c(Nc3c(C)cc(C(=O)N4CCCC4)cc3C)nccc21 [Compound 75]; 102
Cc1ccnc(C)c1Nc1nccc2c1ccn2CC1COC1 [Compound 4]; 93
Cc1ccnc(C(C)(C)F)c1Nc1nccc2c1ccn2CC(C)(F)F [Compound 205]; 98.2
N#Cc1cnc(-n2ccc3c(Nc4c(Cl)cc(F)cc4Cl)nccc32)[nH]1 [Compound 181]; 92.7
CCCCn1ccc2c(Nc3c(C)cc(NC(C)=O)cc3C)nccc21 [Compound 62]; 101
